This collection of values is drawn from patent US20140309192A1.

# Test Target: rat Mas receptor (Rattus norvegicus, UniProt P12526)
# Construct: expressed in transfected cells; host or cells: HEK293 (ATCC CRL-1573)
# Sequence (P12526 whole entry): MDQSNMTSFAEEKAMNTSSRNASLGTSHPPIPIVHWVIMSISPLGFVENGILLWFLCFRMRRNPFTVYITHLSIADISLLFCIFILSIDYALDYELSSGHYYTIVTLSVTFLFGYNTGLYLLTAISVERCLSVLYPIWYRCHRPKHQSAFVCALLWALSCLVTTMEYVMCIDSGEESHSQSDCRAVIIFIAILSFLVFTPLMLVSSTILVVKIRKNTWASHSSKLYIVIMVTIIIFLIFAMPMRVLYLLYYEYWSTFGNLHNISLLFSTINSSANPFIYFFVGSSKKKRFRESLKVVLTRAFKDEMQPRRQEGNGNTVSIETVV
# Test Description: cAMP Dynamic2 HTRF assay, HEK293 cells stably expressing rat Mas receptor
# Assay type: cell-based
# Condition Description: forskolin stimulated cAMP, means ± SEM, NR = No Response, read-out: Gi/cAMP IC50

[
  {
    "Compound": "COc1cc([N+](=O)[O-])ccc1S(=O)(=O)N1CC(CN2CCN(c3ccccn3)CC2)C(c2cccc(F)c2)C1 (stereo not shown) [AR234960]",
    "IC50 (nM)": 1710
  }
]

----------
# Test Target: rat Mas receptor (Rattus norvegicus)
# Construct: expressed in transfected cells; host or cells: HEK293 (ATCC CRL-1573)
# Test Description: HTRF IP1 assay, HEK293 cells expressing rat Mas receptor
# Type: cell-based
# Condition Description: IP assay, HEK293 cells stably expressing rat Mas, 4 h; means ± SEM; read-out: Rat IC50
This section presents molecules with their documented IC50 values.

[
  {
    "Molecule": "COc1cc([N+](=O)[O-])ccc1S(=O)(=O)N1CC(CN2CCN(c3ccccn3)CC2)C(c2cccc(F)c2)C1 (centres unmarked) [AR234960]",
    "Unit Name": "nM",
    "IC50": 172
  },
  {
    "Molecule": "C=CCCN1CCC2(CC1)CN(C(=O)c1c(F)cccc1F)c1ccc(Cl)cc12 [AR244555]",
    "Unit Name": "nM",
    "IC50": 348
  }
]

----------
# Test Target: rat Mas receptor (Rattus norvegicus, UniProt P12526)
# Construct: expressed in transfected cells; host or cells: HEK293 (ATCC CRL-1573)
# Test Description: HTRF IP1 assay, HEK293 cells expressing rat Mas receptor
# Assay type: cell-based
# Condition Description: HTRF IP1 assay, rat Mas receptor (Table B.1); read-out: IC50
# Protocol: Human and rat Mas receptors were either transiently or stably expressed in HEK293 cells. For transient transfections, human or rat Mas in pHM6 vector were transfected into HEK293 cells using Lipofectamine® (Invitrogen #18324-012). […] Individual receptor stable pools were dilution cloned using standard techniques and clones were comparatively evaluated in inositol phosphate accumulation assays. […] IP1 levels in each well were calculated according to the standard curves on each plate. […]
This section presents compounds with their documented IC50 values.
Property Name: IC50 (µM)

[
  {
    "Compound": "O=C(Nc1ccc(Cl)cc1N1CCN(CCC(F)(F)F)CC1)c1ccc(CN2CCC(CO)CC2)cc1F [Compound 54]",
    "Test Target": "rat Mas receptor (Rattus norvegicus, UniProt P12526)",
    "Endpoint Result": 0.497
  },
  {
    "Compound": "O=C1CN(Cc2ccc(C(=O)Nc3cc(Cl)c(Cl)cc3N3CCN(CCC(F)(F)F)CC3)c(F)c2F)CCN1 [Compound 188]",
    "Test Target": "rat Mas receptor (Rattus norvegicus, UniProt P12526)",
    "Endpoint Result": 0.029
  },
  {
    "Compound": "CC(C)(C)OC(=O)NCC[C@H](NCc1ccc(C(=O)Nc2ccc(Cl)cc2N2CCN(CCC(F)(F)F)CC2)c(F)c1F)C(=O)O [Compound 221]",
    "Test Target": "rat Mas receptor (Rattus norvegicus, UniProt P12526)",
    "Endpoint Result": 0.157
  },
  {
    "Compound": "O=C(Nc1ccc(Cl)cc1N1CCN(CCC(F)(F)F)CC1)c1ccc(CN2CCS(=O)(=O)CC2)c(F)c1F [Compound 168]",
    "Test Target": "rat Mas receptor (Rattus norvegicus, UniProt P12526)",
    "Endpoint Result": 0.0272
  },
  {
    "Compound": "COC(=O)[C@H](CN)NCc1ccc(C(=O)Nc2ccc(Cl)cc2N2CCN(CCC(F)(F)F)CC2)c(F)c1 [Compound 198]",
    "Test Target": "rat Mas receptor (Rattus norvegicus, UniProt P12526)",
    "Endpoint Result": 0.173
  },
  {
    "Compound": "O=C(O)C[C@H]1CNCCN1Cc1ccc(C(=O)Nc2ccc(Cl)cc2N2CCN(CCC(F)(F)F)CC2)c(F)c1F [Compound 231]",
    "Test Target": "rat Mas receptor (Rattus norvegicus, UniProt P12526)",
    "Endpoint Result": 0.05
  },
  {
    "Compound": "NC(=O)[C@H](CO)NCc1ccc(C(=O)Nc2ccc(Cl)cc2N2CCN(CCC(F)(F)F)CC2)c(F)c1F [Compound 170]",
    "Test Target": "rat Mas receptor (Rattus norvegicus, UniProt P12526)",
    "Endpoint Result": 0.0214
  },
  {
    "Compound": "O=C(Nc1ccc(Cl)cc1N1CCN(CCC(F)(F)F)CC1)c1ccc(CN2CCN3CCCC3C2)cc1F (centres unmarked) [Compound 157]",
    "Test Target": "rat Mas receptor (Rattus norvegicus, UniProt P12526)",
    "Endpoint Result": 0.184
  },
  {
    "Compound": "O=C(Nc1ccc(Cl)cc1N1CCN(CCC(F)(F)F)CC1)c1ccc(CNC(CO)(CO)CO)cc1F [Compound 103]",
    "Test Target": "rat Mas receptor (Rattus norvegicus, UniProt P12526)",
    "Endpoint Result": 0.535
  },
  {
    "Compound": "O=C(Nc1ccc(Cl)cc1N1CCN(CCC(F)(F)F)CC1)c1ccc(CNC2CCCCNC2=O)cc1F (centres unmarked) [Compound 79]",
    "Test Target": "rat Mas receptor (Rattus norvegicus, UniProt P12526)",
    "Endpoint Result": 0.133
  },
  {
    "Compound": "O=C(Nc1ccc(Cl)cc1N1CCN(CCC(F)(F)F)CC1)c1ccc(CN(CCO)CCO)c(F)c1F [Compound 178]",
    "Test Target": "rat Mas receptor (Rattus norvegicus, UniProt P12526)",
    "Endpoint Result": 0.0448
  },
  {
    "Compound": "N[C@@H]1CCCN(Cc2ccc(C(=O)Nc3ccc(Cl)cc3N3CCN(CCC(F)(F)F)CC3)c(F)c2)C1 [Compound 90]",
    "Test Target": "rat Mas receptor (Rattus norvegicus, UniProt P12526)",
    "Endpoint Result": 0.704
  },
  {
    "Compound": "O=C(Nc1ccc(Cl)cc1N1CCN(CCC(F)(F)F)CC1)c1ccc2c(c1)CN(CCCO)CC2 [Compound 16]",
    "Test Target": "rat Mas receptor (Rattus norvegicus, UniProt P12526)",
    "Endpoint Result": 0.316
  },
  {
    "Compound": "C[C@@H](CO)NC(=O)C1CNCCN1Cc1ccc(C(=O)Nc2ccc(Cl)cc2N2CCN(CCC(F)(F)F)CC2)c(F)c1F (some centres unmarked) [Compound 242]",
    "Test Target": "rat Mas receptor (Rattus norvegicus, UniProt P12526)",
    "Endpoint Result": 0.315
  }
]
